Assign growth to each entry below.
Test system: LOX IMVI melanoma
Test: NCI-60 one-dose screen, 48 h (100 = growth as untreated, 0 = no growth, -100 = all killed)
Conditions: 10 µM unless noted
About 83,000 compounds went through this panel and 20% of them were active in at least one assay; those are over-represented in the sample as a whole.
Give bare numbers, in %.

// worked examples, growth included
>>> reported_result("c1ccc(C(c2nc3ncncc3[nH]2)N2CSc3nc4ccccc4n3C2)cc1 (centres undefined)")
102
>>> reported_result("O=C(Nc1nonc1-c1ccccc1)c1ccc(C(F)(F)F)cc1")
-46.7
>>> reported_result("O=S(=O)(NC1c2ccccc2C[C@H]1O)c1ccc(Cl)cc1Cl (some centres undefined)")
93.3

State the recorded growth for every item in the following list.
1. COc1cc(Cn2cc3c(c2)-c2onc(CN4CCCC4)c2CC3)cc(OC)c1OC
2. CC1(C)NCCC[C@]2(C)[C@H]3C/C(=N\O)C4[C@@H]5C[C@@](C)(CO)CC[C@]5(C)CC[C@@]4(C)[C@]3(C)CC[C@@H]12 (some centres undefined)

result:
97.6
101

# credit: PubChem BioAssay (NCI)
